The following compounds are listed with their measured growth values.
Tested on: UACC-62 melanoma
Experiment summary: NCI-60 one-dose screen, 48 h (100 = growth as untreated, 0 = no growth, -100 = all killed)
Protocol conditions: 10 µM unless noted
About 83,000 compounds went through this panel and 20% of them were active in at least one assay; those are over-represented in the sample as a whole.
// units = %; emit number, no label

Compound	growth [%]
CCC(C)C1NC(=O)C(CCCCN)NC(=O)C(CCCCN)NC(=O)C(CC(C)C)NC(=O)C(CCCCN)NC(=O)C(C(C)CC)NC(=O)C(C(C)C)NC(=O)C(C(C)CC)NC(=O)C(CCCCN)NC(=O)C(CCCCN)NC(=O)C(C)NC(=O)C(CCCCN)NC(=O)C(CC(C)C)NC1=O (centres undefined)	22.1
COCn1c(C(=O)OC)cc2oc(/C=C3/SC(=S)N(N)C3=O)cc21	94
COc1ccc(OC)c(Cn2cc3c(c2)-c2oncc2CC3)c1	53
Cc1ccc(C(=O)Nc2ccc(CN3CCN(C)CC3)c(C(F)(F)F)c2)cc1C#Cc1cncc2ncccc12	-84.8
COc1cc(-c2nn(-c3ccc(NC(=O)Nc4cc(C(F)(F)F)cc(C(F)(F)F)c4)cc3)cc2-c2ccncc2)ccc1Cl	3.75
COc1ccc(-c2nc(Nc3nc4ccccc4[nH]3)nc(N)c2C#N)cc1	89.3
O=S(=O)(O)CCI	101
O=C(Nc1ccc(Cl)cn1)C1(c2ccccc2)CCCCC1	94.4

Then there is this compound:
Qu. Give its growth value. Item: C/C(=C\c1ccc2ccccc2c1)[N+](=O)[O-]
Ans. 78.2

All values here come from PubChem BioAssay (NCI).
